Biological target: FBW7^ARG+pCycE (Homo sapiens, UniProt Q969H0, R505L)
Construct: GST (TEV site and flexible linker) (N, cleaved yes); made in house; host or cells: SF9 insect cells (baculovirus)
Sequence (Q969H0 64-707 R505L): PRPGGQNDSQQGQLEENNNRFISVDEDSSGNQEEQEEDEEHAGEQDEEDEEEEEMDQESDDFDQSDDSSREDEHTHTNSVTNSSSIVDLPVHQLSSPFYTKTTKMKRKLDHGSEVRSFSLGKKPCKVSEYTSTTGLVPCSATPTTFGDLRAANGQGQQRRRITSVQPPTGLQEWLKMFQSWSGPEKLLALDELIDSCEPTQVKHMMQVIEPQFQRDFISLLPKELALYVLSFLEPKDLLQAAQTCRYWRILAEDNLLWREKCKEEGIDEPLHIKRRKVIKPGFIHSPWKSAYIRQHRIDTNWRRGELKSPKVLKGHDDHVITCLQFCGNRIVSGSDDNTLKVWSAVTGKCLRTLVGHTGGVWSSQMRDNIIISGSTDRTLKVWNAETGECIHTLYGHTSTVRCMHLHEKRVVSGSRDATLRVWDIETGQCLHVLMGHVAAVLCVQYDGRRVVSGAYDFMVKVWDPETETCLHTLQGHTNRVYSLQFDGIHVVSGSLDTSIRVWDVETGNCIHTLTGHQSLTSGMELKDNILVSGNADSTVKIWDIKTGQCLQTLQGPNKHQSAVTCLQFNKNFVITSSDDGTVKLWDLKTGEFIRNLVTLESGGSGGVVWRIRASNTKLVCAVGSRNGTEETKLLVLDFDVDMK
Sequence (P63208 2-163 partner): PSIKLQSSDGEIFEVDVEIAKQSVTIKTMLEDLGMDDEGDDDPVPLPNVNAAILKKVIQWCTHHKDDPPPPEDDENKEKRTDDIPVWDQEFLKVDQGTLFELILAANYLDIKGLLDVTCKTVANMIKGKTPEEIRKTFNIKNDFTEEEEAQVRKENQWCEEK
Test: FBW7^ARG-cyclin E agonist ALPHAscreen (primary PRUN, confirmation CRUN1, dose-response DRUN)
Assay type: binding
Conditions: DRUN dose-response, raw curve fit; read-out: FBW7 ACT EC50 Curve Fit Raw, Molar
measured.endpoint: pEC50
Scale explanation: pEC50 corresponds to minus log10 of a concentration expressed in moles per litre.

For orientation, consider the following solved cases.
Request: // query pEC50 value for entry CN(C)CC[S+]([O-])c1cc(-c2cn[nH]c2)ccc1NC(=O)[C@@H]1Cc2cc(F)ccc2CN1.O=C(O)C(F)(F)F (some centres unmarked) [SR-00000005398-1]
Response: 5.04

Request: Also need CCC(C)OC(=O)C1=C(C)NC2=C(C(=O)CC(c3ccc(Cl)cc3)C2)C1c1cccc(Cl)c1 (centres unmarked) [SR-01000422821-1] , thanks.
Response: 4.80

Request: What do we get for CCSc1nnc(C2CCN(CC(=O)Nc3cccc4ccccc34)CC2)n1C [SR-01000349710-1] ?
Response: 4.74

Request: Now the same for CCCOC(=O)C1=C(C)N(CC)C(=O)NC1c1ccccc1[N+](=O)[O-] (centres unmarked) [SR-01000417871-1]
Response: 5.07

Request: Next: Fc1ccccc1CSc1nnnn1-c1ccccc1F [SR-01000432842-1]
Response: 8.09

Request: Param item: Cn1nc(CC(=O)Nc2ccc(F)c(Cl)c2)c2ccccc2c1=O [SR-01000589827-1]
Response: 6.16

Request: Next: COc1ccccc1C1C(C(=O)OC2CCCC2)=C(C)NC2=C1C(=O)CC(c1ccccc1)C2 (centres unmarked) [SR-01000422836-1]
Response: 2.62

Request: // next record COc1ccc(OC)c(/C=C2/N=C(c3cccc([N+](=O)[O-])c3)OC2=O)c1 [SR-01000414795-1]
Response: 8.77

Request: Quick one: O=C(Cc1ccc(Br)cc1)N1CCC(c2nc(O)c3cnccc3n2)C1.O=C(O)C(F)(F)F (centres unmarked) [SR-00000005455-1]
Response: 4.52

Request: Same lookup for CCc1ccc(N2CC(C(=O)NCC(C)(C)CNC(=O)C3CC(=O)N(c4ccc(CC)cc4)C3)CC2=O)cc1 (centres unmarked) [SR-01000537224-1] , please.
Response: 5.15

More entries:
Request: Reported pEC50, compound CCSCCOC(=O)C1=C(C)NC2=C(C(=O)CC(c3ccccc3)C2)C1c1ccc(OC)cc1OC (centres unmarked) [SR-01000425645-1] : ____
Response: 8.44
